- System: CCRIS mutagenicity, Ames/micronucleus/aberration tests
- run-description: CCRIS mutagenicity studies
- assay-conditions: Test System: AMES SALMONELLA TYPHIMURIUM; Strain/Indicator: TA1537; Metabolic Activation: RAT, LIVER, S-9, AROCLOR 1254; Method: STANDARD PLATE
Calls of active or inactive are those of the source. No rule for the calls is given here.
API: response.call in active, inactive

>>> class("Clc1cc(Cl)c(Cl)cc1Cl")
"inactive"
>>> class("CNc1ccc(N(CCO)CCO)cc1[N+](=O)[O-]")
"inactive"
>>> class("COc1cc(N)c(OC)cc1N")
"active"
>>> class("Cc1ccc2ccc3c(ccc4c5cccc(C)c5ccc43)c2c1")
"inactive"
>>> class("CC12CCC(=O)NC1=CCC1C2CCC2(C)C(OC(=O)CCCc3ccc(N(CCCl)CCCl)cc3)CCC12 (configuration not stated)")
"inactive"
>>> class("Nc1ncc([N+](=O)[O-])s1")
"inactive"

Let us examine a further case.
Please let me know the test result on file for `Clc1ccc2c(c1)C(c1ccccc1)=NCc1nncn1-2` .
inactive

====

- System: CCRIS mutagenicity, Ames/micronucleus/aberration tests
- run-description: CCRIS mutagenicity studies
- assay-conditions: Test System: CHINESE HAMSTER V-79; Strain/Indicator: V-79/6-THIOGUANINE; Metabolic Activation: NONE
Activity calls are given as the source filed them. The rule behind the calls is not given here.
measurement-type: mutagenic call

Here's what some known entries look like.
>>> experimental_value("O=C1C=CC(=O)C=C1")
"active; positive"
>>> experimental_value("CCC(=O)N(c1ccc(Cl)c(Cl)c1)[C@@H]1CCC[C@H]1N(C)C")
"inactive; negative"
>>> experimental_value("CN(C)CCCN1c2ccccc2Sc2ccc(Cl)cc21")
"inactive; negative"
>>> experimental_value("O[C@H]1[C@H]2O[C@H]2c2ccc3c(ccc4ccccc43)c2[C@@H]1O")
"active; positive"
>>> experimental_value("[CH3][Hg][CH3]")
"inactive; negative"
>>> experimental_value("CCOC(=O)C(C)(C)Oc1ccc(Cl)cc1")
"inactive; negative"

Kindly give each listed record's mutagenic call.
1. CCn1cc(C(=O)O)c(=O)c2cc(F)c(-c3ccncc3)c(F)c21
2. CC(=O)[C@]1(O)Cc2c(O)c3c(c(O)c2[C@@H](O[C@H]2C[C@H](N)[C@H](OC(C[C@H](C)O)O[C@@H](C)C=O)[C@H](C)O2)C1)C(=O)c1c(O)cccc1C3=O (stereo partly drawn)
3. CC(C)CCC[C@@H](C)[C@H]1CC[C@H]2[C@@H]3C[C@@H]4O[C@@]45C[C@@H](O)CC[C@]5(C)[C@H]3CC[C@]12C

active; positive
active; positive
active; positive

Give me mutagenic call for each of these compounds, listed below.
1. C1CCC(C(CC2CCCCN2)C2CCCCC2)CC1 (stereo not drawn)
2. CC[C@H](C)OS(C)(=O)=O
3. OCC1CO1 (stereo not drawn)

inactive; negative
active; positive
active; positive

So what does the record say about mutagenic call for `O=c1[nH]c(=O)n([C@H]2C[C@H](O)[C@@H](CO)O2)cc1CO` ?
active; positive

====

- Tested on: CCRIS mutagenicity, Ames/micronucleus/aberration tests
- run-description: CCRIS mutagenicity studies
- assay-conditions: Test System: AMES SALMONELLA TYPHIMURIUM; Strain/Indicator: TA1535; Metabolic Activation: HAMSTER, LIVER, S-9, AROCLOR 1254 (10%); Method: PREINCUBATION
Activity calls are given as the source filed them. How the calls were made is not given here.
measurement-type: mutagenic call

Below, each entry is followed by its recorded mutagenic call result.
>>> experimental_value("O=C1CCC(=O)O1")
"inactive; negative"
>>> experimental_value("O=C1OC(c2ccc(O)cc2)(c2ccc(O)cc2)c2ccccc21")
"inactive; negative"
>>> experimental_value("Nc1ccc(O)c([N+](=O)[O-])c1")
"inactive; negative"
>>> experimental_value("C[CH2][Pb]([Cl])([CH2]C)[CH2]C")
"inactive; negative"
>>> experimental_value("Cc1ccc(Br)cc1")
"inactive; negative"

Answer for every listed entry: what is its mutagenic call? The entries follow.
1. C=CC(=O)OCCOCCOCCOCCOC(=O)C=C
2. CNc1ccc(N(CCO)CCO)cc1[N+](=O)[O-]

1. inactive; negative
2. inactive; negative

====

- Test system: CCRIS mutagenicity, Ames/micronucleus/aberration tests
- run-description: CCRIS mutagenicity studies
- assay-conditions: Test System: AMES SALMONELLA TYPHIMURIUM; Strain/Indicator: TA100; Metabolic Activation: RAT, LIVER, S-9, AROCLOR 1254 (10%); Method: PREINCUBATION
Calls of active or inactive are those of the source. No rule for the calls is given here.
Choose one outcome from this list and give only that: active, inactive

Record request — test call for `O=C(O)CS`
inactive

Hi, sorry to bother you, what did the test record for `CCOC(=O)c1ccccc1C(=O)OCC` ?
inactive

Which outcome was entered for the compound `NCCCN` in this test?
inactive

====

- Tested on: CCRIS mutagenicity, Ames/micronucleus/aberration tests
- run-description: CCRIS mutagenicity studies
- assay-conditions: Test System: AMES SALMONELLA TYPHIMURIUM; Strain/Indicator: TA98; Method: STANDARD PLATE
The source made the active and inactive calls. No rule for the calls is given here.
Classes to choose from: active, inactive

>>> class("Cc1c2ccccc2cc2c1ccc1ccccc12")
"active"
>>> class("CC(=O)Nc1nc2c3cccnc3cc(C)c2n1C")
"active"
>>> class("Cc1cc2ncccc2c2nc(N)n(C)c12")
"active"

# ---- query compound ----
Lab log entry: `C=C1CC[C@H]2[C@@H](c3c(C)c(O)c4c(c31)C(=O)[C@@H](C)C4)C2(C)C` — outcome as called in the assay?
inactive

====

- Tested on: CCRIS mutagenicity, Ames/micronucleus/aberration tests
- run-description: CCRIS mutagenicity studies
- assay-conditions: Test System: AMES SALMONELLA TYPHIMURIUM; Strain/Indicator: TA98; Metabolic Activation: NONE
The source made the active and inactive calls. The rule behind the calls is not given here.
measurement-type: mutagenic call

These solved cases illustrate the format of a correct answer.
>>> experimental_value("CC(=O)Nc1ccc(C(=O)CCl)cc1")
"active; positive"
>>> experimental_value("O=C(O)[C@@H]1Cc2c([nH]c3ccccc23)[C@@H]([C@H]2CCNC2=S)N1")
"inactive; negative"
>>> experimental_value("C/C=C\\C1=CC(=O)[C@]23C[C@H]2C(C)(C)O[C@]3(O)C1=O")
"inactive; negative"
>>> experimental_value("CC(=O)N[C@@H]1[C@@H](O[C@@H]2O[C@H](C(=O)O)[C@@H](O[C@@H]3O[C@H](CO)[C@@H](O)[C@H](O[C@@H]4O[C@H](C(=O)O)[C@@H](O)[C@H](O)[C@H]4O)[C@H]3NC(C)=O)[C@H](O)[C@H]2O)[C@H](O)[C@@H](CO)O[C@H]1O")
"inactive; negative"
>>> experimental_value("O=[N+]([O-])c1ccc2ccc3cc4c(c5ccc1c2c35)[C@H](O)[C@@H](O)C=C4")
"active; positive"
>>> experimental_value("CC(C)=CC1C(C(=O)OCN2C(=O)C3=C(CCCC3)C2=O)C1(C)C (centres undefined)")
"active; positive"
>>> experimental_value("c1cc2ccc3nc4ccccc4c4ccc(c1)c2c34")
"inactive; negative"
>>> experimental_value("O=[N+]([O-])c1ccc2ccc3c4c(cc5ccc1c2c53)C=C[C@H](O)[C@H]4O")
"active; positive"

Now turn to the next molecule.
Notebook: pull reported mutagenic call for CCRIS mutagenicity, Ames/micronucleus/aberration tests, entry `Oc1cc(Cl)c(O)cc1Cl`
inactive; negative

====

- Tested on: CCRIS mutagenicity, Ames/micronucleus/aberration tests
- run-description: CCRIS mutagenicity studies
- assay-conditions: Test System: AMES SALMONELLA TYPHIMURIUM; Strain/Indicator: TA100; Metabolic Activation: RAT LIVER S-9, AROCLOR 1254; Method: STANDARD PLATE
- From the text: The CCRIS database contains chemical records with carcinogenicity, mutagenicity, tumor promotion, and tumor inhibition test results. It was developed by the National Cancer Institute (NCI). Data are derived from studies cited in primary journals, current awareness tools, NCI reports, and other sources. Test results have been reviewed by experts in carcinogenesis and mutagenesis. CCRIS provides historical information from the years 1985 - 2011. It is no longer updated. […]
Calls of active or inactive are those of the source. The rule behind the calls is not given here.
Output constraint: value belongs to true for active, false for inactive

Sample answers from the record:
>>> class("[Cu+2].[O-]c1cccc2cccnc12.[O-]c1cccc2cccnc12")
"true"
>>> class("CC(C)[C@@H]1CC[C@@H](C)C[C@H]1O")
"false"
>>> class("C/C=C1\\CC2C=CC1C2 (centres undefined)")
"false"
>>> class("Cc1cc([N+](=O)[O-])c(C)c2c1[nH]c1ccccc12")
"false"
>>> class("Cc1cc([N+](=O)[O-])c(C)c2c1[nH]c1ccc(O)cc12")
"false"

Now for another entry.
Tell me the recorded outcome of this test for `O=S(=O)(O)c1ccc(N=Nc2c(O)ccc3cc(S(=O)(=O)O)ccc23)cc1` .
false
